This collection of values is drawn from patent US20050233403A1.

- System: 3T3-L1 cells
- experimental.details: Fluorescent fatty acid uptake by 3T3-L1 cells, 96-well format
- Type: cell-based
- particulars: 10 μM dye, one hour; cells 9 days in differentiation medium; means ± SEM
Quick list: Uptake by 3T3-L1 cells, Day 9 per entry.

[
  {
    "molecule": "O=C([O-])CCCCCCCCCCCc1ccc2n1[B-](F)(F)[N+]1=C(c3cccs3)C=CC1=C2.[H+]",
    "target": "3T3-L1 cells",
    "Uptake by 3T3-L1 cells, Day 9": "3622 ± 641 Raw Fluorescent Units"
  },
  {
    "molecule": "O=C(O)CCCCCCCCCCCCCCCOC(=O)c1c2ccccc2cc2ccccc12",
    "target": "3T3-L1 cells",
    "Uptake by 3T3-L1 cells, Day 9": "8528 ± 20 Raw Fluorescent Units"
  },
  {
    "molecule": "CC1=[N+]2C(=Cc3ccc(CCCCCCCCCCCC(=O)O)n3[B-]2(F)F)C=C1",
    "target": "3T3-L1 cells",
    "Uptake by 3T3-L1 cells, Day 9": "56869 ± 2093 Raw Fluorescent Units"
  },
  {
    "molecule": "CCCCCCC(C/C=C\\CCCCCCCC(=O)O)OC(=O)c1c2ccccc2cc2ccccc12 (stereo not shown)",
    "target": "3T3-L1 cells",
    "Uptake by 3T3-L1 cells, Day 9": "10960 ± 1172 Raw Fluorescent Units"
  }
]
